Tested on: MDA-MB-435 breast carcinoma cells
ASSAY_NAME: Inhibition of MDA-MB-435 cell adhesion to immobilized peptide 678 (microscopic adhesion assay)
Assay type: cell-based, human
CONDITION_CONTEXT: Table 3; 5 μM peptide 678; read-out: IC50 (μM), inhibition of MDA-MB-435 cell adhesion to immobilized peptide 678
Where no end group is shown, it is not given here.
Measured IC50, listed per entry.
EXPERIMENTAL_READOUT: IC50

CONSTRUCT_SEQUENCE	EXPERIMENTAL_READOUT	EXPERIMENTAL_VALUE
FQGVLQNVQFVF [Peptide 703]	IC50	> 100 µM
FQGVLQNARFVF [Peptide 691]	IC50	> 300 µM
FQGVLQNVAFVF [Peptide 690]	IC50	> 300 µM
FQGVLQAVRFVF [Peptide 686]	IC50	> 300 µM
